- testedTarget: benzodiazepine modulatory unit (GABAA receptor complex)
- testSummary: In vitro inhibition of 3H-flunitrazepam (3H-FNM) binding
- Parameters: species or system rat
- protocolConditions: inhibition of specific binding of 3H-FNM (1 nM); cerebral cortex membranes from male Wistar rats; 40 min at 2° C.
attributeMeasured: pIC50
Reminder that pIC50 is minus the log10 of a molar concentration.

// known answers, use as guide
q: Please give measured pIC50 of the following entry: N#Cc1cccc(-n2cnc(-c3ccccc3)c2)c1
a: 7.00

q: Please give measured pIC50 of the following entry: COc1ccc(-c2cn(-c3cccc(-c4ccccc4)c3)cn2)cc1
a: 6.34

More entries:
q: Please give measured pIC50 of the following entry: Nc1cccc(-c2cn(-c3cccc(-c4ccccc4)c3)cn2)c1
a: 6.10
